test_system: Abf1 (UniProt P14164)
Sequence: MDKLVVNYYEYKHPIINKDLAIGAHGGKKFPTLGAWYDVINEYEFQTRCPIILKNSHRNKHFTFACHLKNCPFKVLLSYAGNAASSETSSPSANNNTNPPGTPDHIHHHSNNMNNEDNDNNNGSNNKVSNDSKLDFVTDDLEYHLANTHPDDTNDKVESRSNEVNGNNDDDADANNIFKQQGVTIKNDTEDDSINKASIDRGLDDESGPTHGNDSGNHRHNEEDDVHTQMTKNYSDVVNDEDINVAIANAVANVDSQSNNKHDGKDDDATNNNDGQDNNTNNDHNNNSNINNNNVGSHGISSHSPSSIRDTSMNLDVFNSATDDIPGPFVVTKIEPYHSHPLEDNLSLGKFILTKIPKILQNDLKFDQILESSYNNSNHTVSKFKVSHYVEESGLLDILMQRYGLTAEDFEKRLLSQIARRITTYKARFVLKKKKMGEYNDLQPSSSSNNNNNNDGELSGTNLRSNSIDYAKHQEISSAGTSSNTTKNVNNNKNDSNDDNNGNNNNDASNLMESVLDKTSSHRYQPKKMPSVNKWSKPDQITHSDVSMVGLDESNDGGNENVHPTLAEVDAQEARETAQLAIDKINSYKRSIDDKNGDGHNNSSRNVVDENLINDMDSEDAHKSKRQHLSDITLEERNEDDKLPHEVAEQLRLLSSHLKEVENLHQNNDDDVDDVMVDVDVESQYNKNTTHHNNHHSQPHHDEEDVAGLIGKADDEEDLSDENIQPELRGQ
assay: PBM E-score (8-mer binding enrichment) (E-score (-0.5 to 0.5)); higher = stronger / more preferred TF binding
condition: protein concentration: 200 nM; construct: GST-full length
In all, about 33,000 sequences were measured (“E-score (-0.5 to 0.5)”: median about -0.015, highest 2% from about 0.3 on). The full list was thinned out, with the highest values kept by preference.
The recorded PBM E-score of each item maps onto one of these classes: Low = under 0.07, Medium = from 0.07 up to 0.2, High = 0.2 and over

Inquiry: // bin(item) where item = AAAACGAA
Reply text: Medium

Inquiry: What would you report for ATATCGTC ?
Reply text: High

Inquiry: What would you report for AAAACGAT ?
Reply text: High

Inquiry: What would you report for ACGTAGAC ?
Reply text: Low

Inquiry: What would you report for CTCGTCAC ?
Reply text: High

Inquiry: What would you report for GCCGTCAC ?
Reply text: Low

Inquiry: What would you report for ATCGTCAC ?
Reply text: High

Inquiry: What would you report for ATATCGGC ?
Reply text: Medium

Inquiry: What would you report for CCGCAGTC ?
Reply text: Low

Inquiry: What would you report for CTCGTCAG ?
Reply text: Medium

Inquiry: What would you report for ACGACCTG ?
Reply text: Low

Inquiry: What would you report for CACGTCAA ?
Reply text: Low

Inquiry: What would you report for GAACTTCC ?
Reply text: Low

Inquiry: What would you report for ATCGTCTC ?
Reply text: High

Inquiry: What would you report for AGCGTCAC ?
Reply text: Low

Inquiry: What would you report for GTCGTCAC ?
Reply text: High

Inquiry: What would you report for GTCGTCAA ?
Reply text: High

Inquiry: What would you report for CACGTCAG ?
Reply text: Medium

Inquiry: What would you report for CACGTCAC ?
Reply text: High

Inquiry: What would you report for CTCGTCAA ?
Reply text: Medium

Inquiry: What would you report for CTATCGTC ?
Reply text: High

---

test_system: Abf1 (UniProt P14164)
Sequence: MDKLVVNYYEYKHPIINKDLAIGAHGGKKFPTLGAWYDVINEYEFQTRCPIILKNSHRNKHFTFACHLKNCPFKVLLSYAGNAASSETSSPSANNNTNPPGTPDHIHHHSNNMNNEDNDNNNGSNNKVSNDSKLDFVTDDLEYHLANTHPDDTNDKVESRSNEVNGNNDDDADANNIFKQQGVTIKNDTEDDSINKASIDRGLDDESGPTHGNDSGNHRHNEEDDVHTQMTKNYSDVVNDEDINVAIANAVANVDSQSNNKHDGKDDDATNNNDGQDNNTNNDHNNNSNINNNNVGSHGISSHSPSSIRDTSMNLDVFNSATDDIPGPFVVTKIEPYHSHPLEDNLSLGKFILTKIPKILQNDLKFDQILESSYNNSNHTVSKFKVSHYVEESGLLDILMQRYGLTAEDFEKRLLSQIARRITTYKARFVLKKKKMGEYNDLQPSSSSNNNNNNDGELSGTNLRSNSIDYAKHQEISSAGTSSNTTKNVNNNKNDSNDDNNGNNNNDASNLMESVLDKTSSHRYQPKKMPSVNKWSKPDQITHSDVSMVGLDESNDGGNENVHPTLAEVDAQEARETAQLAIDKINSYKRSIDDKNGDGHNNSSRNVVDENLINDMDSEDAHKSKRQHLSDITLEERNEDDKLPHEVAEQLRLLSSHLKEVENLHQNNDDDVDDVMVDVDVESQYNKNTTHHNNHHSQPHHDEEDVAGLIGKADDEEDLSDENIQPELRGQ
assay: PBM E-score (8-mer binding enrichment) (E-score (-0.5 to 0.5)); higher = stronger / more preferred TF binding
condition: protein concentration: 200 nM; construct: GST-full length
Whole data set: some 33,000 sequences, median “E-score (-0.5 to 0.5)” near -0.015, cut for the highest 2% near 0.3. For the sample, the highest values were picked, then their nearest neighbours and some sequences at random.
Please respond with reported PBM E-score for every item in the list.
Response field accepts a number only; no unit should be typed.

Inquiry: Quick one: PBM E-score of ACTTCAGC ?
Reply text: -0.124

Inquiry: What would you report for TCGTGAGA ?
Reply text: 0.263

Inquiry: What would you report for CTGGTTGC ?
Reply text: -0.0319

Inquiry: What would you report for CGATATCA ?
Reply text: 0.363

Inquiry: What would you report for CGATATTA ?
Reply text: 0.326

Inquiry: What would you report for AAAATGAG ?
Reply text: 0.0916

Inquiry: What would you report for ACCTAATC ?
Reply text: 0.111

Inquiry: What would you report for GGTCGCCA ?
Reply text: -0.074

Inquiry: What would you report for GAAATGAA ?
Reply text: 0.164

Inquiry: What would you report for GAAATGAC ?
Reply text: 0.312

Inquiry: What would you report for ATAAGATG ?
Reply text: 0.201

Inquiry: What would you report for CGATATTC ?
Reply text: 0.225

Inquiry: What would you report for GCAGGGAC ?
Reply text: -0.131

Inquiry: What would you report for TATCACAA ?
Reply text: 0.25

Inquiry: What would you report for CACACGAA ?
Reply text: 0.341

Inquiry: What would you report for ACTCATCC ?
Reply text: 0.227

Inquiry: What would you report for CTGCCGTA ?
Reply text: 0.122

Inquiry: What would you report for ATGGTGGC ?
Reply text: -0.387

Inquiry: What would you report for TCGTGAAA ?
Reply text: 0.205

Inquiry: What would you report for AGTAGAAA ?
Reply text: 0.168

Inquiry: What would you report for AGTGATTC ?
Reply text: 0.207

Inquiry: What would you report for AACACGAA ?
Reply text: 0.205

Inquiry: What would you report for CGAAGGGC ?
Reply text: -0.116

Inquiry: What would you report for CCCGCTCG ?
Reply text: -0.0943

Inquiry: What would you report for GCTGATGA ?
Reply text: 0.199

Inquiry: What would you report for CGTTACAG ?
Reply text: -0.0224

Inquiry: What would you report for CACACGAG ?
Reply text: 0.107

Inquiry: What would you report for CATTTTGG ?
Reply text: 0.124

Inquiry: What would you report for CGTTACAC ?
Reply text: 0.298

Inquiry: What would you report for GCCGTAGC ?
Reply text: 0.0651

Inquiry: What would you report for CGTGATGC ?
Reply text: 0.0552

Inquiry: What would you report for CGTTATAC ?
Reply text: 0.303

Inquiry: What would you report for CCGTGACA ?
Reply text: 0.363

Inquiry: What would you report for TACACGAA ?
Reply text: 0.337

Inquiry: What would you report for ATCATTTA ?
Reply text: 0.305

Inquiry: What would you report for TCAGGCGA ?
Reply text: 0.0781

Inquiry: What would you report for CGGGCGCC ?
Reply text: -0.053

Inquiry: What would you report for ACTCCTAC ?
Reply text: 0.0623

Inquiry: What would you report for GGCAAAAC ?
Reply text: -0.0611

Inquiry: What would you report for CGTTATAG ?
Reply text: 0.105

Inquiry: What would you report for CCGTGAAG ?
Reply text: 0.136

Inquiry: What would you report for CAAATGAC ?
Reply text: 0.144

Inquiry: What would you report for CCGTGAAA ?
Reply text: 0.381

Inquiry: What would you report for AGTGATTA ?
Reply text: 0.351

Inquiry: What would you report for TCCGTAGA ?
Reply text: 0.143

Inquiry: What would you report for GGTGATTA ?
Reply text: 0.242

Inquiry: What would you report for GCCGTAGA ?
Reply text: 0.371

Inquiry: What would you report for GCCGTATA ?
Reply text: 0.379

Inquiry: What would you report for AGTGATGG ?
Reply text: 0.056

Inquiry: What would you report for AAGAGAAA ?
Reply text: -0.0161

Inquiry: What would you report for ACGTGACC ?
Reply text: 0.0122

Inquiry: What would you report for GAATGGAC ?
Reply text: 0.0322

Inquiry: What would you report for CCGTGACG ?
Reply text: 0.198

Inquiry: What would you report for GACACGGA ?
Reply text: 0.167

Inquiry: What would you report for GGATATTA ?
Reply text: 0.088

Inquiry: What would you report for GGTCGCAA ?
Reply text: -0.0813

Inquiry: What would you report for GCGCAACA ?
Reply text: -0.123

Inquiry: What would you report for ACCCTTCA ?
Reply text: -0.0788

Inquiry: What would you report for AAGATCCT ?
Reply text: 0.0788

Inquiry: What would you report for CGTGATGA ?
Reply text: 0.31

Inquiry: What would you report for CATCACGA ?
Reply text: 0.0436

Inquiry: What would you report for CAGGATGA ?
Reply text: 0.197

Inquiry: What would you report for TTAGCCAA ?
Reply text: -0.00286

Inquiry: What would you report for AAAGTGCG ?
Reply text: -0.105

Inquiry: What would you report for ACCATTTA ?
Reply text: 0.0343

Inquiry: What would you report for CCCGTATA ?
Reply text: 0.289

Inquiry: What would you report for CGTAGAAA ?
Reply text: 0.318

Inquiry: What would you report for CAGCAAGG ?
Reply text: -0.192

Inquiry: What would you report for TTTTAAAA ?
Reply text: 0.0597

Inquiry: What would you report for CTTGTGGA ?
Reply text: -0.249

Inquiry: What would you report for AATCACGA ?
Reply text: 0.309

Inquiry: What would you report for AGTCGTAC ?
Reply text: 0.169

Inquiry: What would you report for CGGTATCA ?
Reply text: 0.204

Inquiry: What would you report for GACACGAA ?
Reply text: 0.172

Inquiry: What would you report for GATCGACA ?
Reply text: 0.013

Inquiry: What would you report for CGGAAGTA ?
Reply text: -0.0352

Inquiry: What would you report for TGGTGGAA ?
Reply text: -0.0333

Inquiry: What would you report for ACTTGTCT ?
Reply text: -0.0797

Inquiry: What would you report for TATCACGA ?
Reply text: 0.366

Inquiry: What would you report for AGTCCCCG ?
Reply text: -0.265

Inquiry: What would you report for TCGTGACA ?
Reply text: 0.354

Inquiry: What would you report for CACACGAC ?
Reply text: 0.295

Inquiry: What would you report for AAAATGAT ?
Reply text: 0.387

Inquiry: What would you report for CTCATCAA ?
Reply text: 0.192

Inquiry: What would you report for CTAAGCGC ?
Reply text: -0.121

Inquiry: What would you report for AGCCGGTA ?
Reply text: -0.013

Inquiry: What would you report for ACCGTATG ?
Reply text: 0.27

Inquiry: What would you report for AACATTTA ?
Reply text: 0.0911

Inquiry: What would you report for GGCGTATA ?
Reply text: -0.0363

Inquiry: What would you report for ACGTGACA ?
Reply text: 0.355

Inquiry: What would you report for AGACCATC ?
Reply text: -0.195

The measurements presented in this section are drawn from the supplement of paper PMC3334620.
